Field pKi: reported value for Muscarinic acetylcholine receptor M4 (Homo sapiens, UniProt P08173); entries drawn from several documents.
Molecular target: Muscarinic acetylcholine receptor M4 (Homo sapiens, UniProt P08173)
Sequence (P08173 whole entry): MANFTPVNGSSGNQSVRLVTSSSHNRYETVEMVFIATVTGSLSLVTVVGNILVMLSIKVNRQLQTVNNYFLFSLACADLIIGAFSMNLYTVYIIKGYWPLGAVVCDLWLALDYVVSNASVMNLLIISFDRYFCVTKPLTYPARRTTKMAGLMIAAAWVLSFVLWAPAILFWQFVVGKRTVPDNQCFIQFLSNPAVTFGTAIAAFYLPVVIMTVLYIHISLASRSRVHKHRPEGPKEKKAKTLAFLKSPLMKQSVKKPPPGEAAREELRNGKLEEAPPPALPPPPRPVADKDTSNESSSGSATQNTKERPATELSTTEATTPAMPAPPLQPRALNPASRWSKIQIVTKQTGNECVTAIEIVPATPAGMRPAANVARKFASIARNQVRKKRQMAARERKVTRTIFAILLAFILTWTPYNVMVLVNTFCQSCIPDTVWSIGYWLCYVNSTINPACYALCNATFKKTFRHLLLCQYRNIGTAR
pKi: −log10 of the molar value.
assay-endpoint: pKi

compound="c1ccc2c3c([nH]c2c1)C(Cc1ccc2c(c1)OCO2)NCC3 (centres undefined)" assay_target="Muscarinic acetylcholine receptor M4 (Homo sapiens, UniProt P08173)" censoring_operator== result=4.62
compound="COc1cc2c(cc1OC)CN(/C=N/c1ccc3c(c1)C1SCCSC1C3)CC2 (centres undefined)" assay_target="Muscarinic acetylcholine receptor M4 (Homo sapiens, UniProt P08173)" censoring_operator== result=6.52
compound=NC1CCN(CCCCC2CCN(CC(=O)N3c4ccccc4NC(=O)c4ccccc43)CC2)CC1 assay_target="Muscarinic acetylcholine receptor M4 (Homo sapiens, UniProt P08173)" censoring_operator== result=8.60
compound="CC1CCCCN1CC(=O)n1c2ccccc2c2ccccc21 (centres undefined)" assay_target="Muscarinic acetylcholine receptor M4 (Homo sapiens, UniProt P08173)" censoring_operator=< result=4.00
compound=COc1nsnc1OCCOCCOc1nsnc1C1=CCCN(C)C1 assay_target="Muscarinic acetylcholine receptor M4 (Homo sapiens, UniProt P08173)" censoring_operator== result=7.20
compound=CN1/C(=C/C=C/C=C/C2=[N+](CCCCCC(=O)NCCCCCCCCN3CCC(OC(=O)Nc4ccc(F)cc4-c4ccc(F)c(Cl)c4)CC3)c3ccccc3C2(C)C)C(C)(C)c2ccccc21 assay_target="Muscarinic acetylcholine receptor M4 (Homo sapiens, UniProt P08173)" censoring_operator== result=9.07
compound="COc1ccc2c(c1)C(C(C)c1ccccn1)=C(CCN(C)C)C2 (centres undefined)" assay_target="Muscarinic acetylcholine receptor M4 (Homo sapiens, UniProt P08173)" censoring_operator== result=5.07
compound=NCCN1CCN(CCCC2CCN(CC(=O)N3c4ccccc4NC(=O)c4ccccc43)CC2)CC1 assay_target="Muscarinic acetylcholine receptor M4 (Homo sapiens, UniProt P08173)" censoring_operator== result=7.73
compound=C=C(c1ccc(S(=O)(=O)c2ccc(OC)cc2)cc1)C1CCN(C2CCCCC2)CC1 assay_target="Muscarinic acetylcholine receptor M4 (Homo sapiens, UniProt P08173)" censoring_operator== result=9.48
compound=O=C(NCC1CCN(CC2CCC2)CC1)[C@H]1CCCN1C(=O)[C@@H]1C[C@@H](O)CN1C(=O)CC(c1ccc(F)cc1)(c1ccc(F)cc1)c1ccc(F)cc1 assay_target="Muscarinic acetylcholine receptor M4 (Homo sapiens, UniProt P08173)" censoring_operator== result=7.51
compound=COc1ccc2[nH]c3c(c2c1)CCN=C3c1cc([N+](=O)[O-])cn1C assay_target="Muscarinic acetylcholine receptor M4 (Homo sapiens, UniProt P08173)" censoring_operator== result=4.15
compound=O=C1CCc2ccccc2N1CCCN1CCC(CCc2ccccc2)CC1 assay_target="Muscarinic acetylcholine receptor M4 (Homo sapiens, UniProt P08173)" censoring_operator== result=6.70
compound=O=C(NCC1CCNCC1)[C@H]1CCCN1C(=O)[C@@H]1C[C@@H](O)CN1C(=O)CC(c1ccccc1)(c1ccccc1)c1ccccc1 assay_target="Muscarinic acetylcholine receptor M4 (Homo sapiens, UniProt P08173)" censoring_operator== result=6.32
compound=N#Cc1cc(F)cc(C#Cc2csc(F)n2)c1 assay_target="Muscarinic acetylcholine receptor M4 (Homo sapiens, UniProt P08173)" censoring_operator=< result=5.00
compound="C1CCC(CN[C@H]2C3C4CC5C6C4CC3C6C52)CC1 (some centres undefined)" assay_target="Muscarinic acetylcholine receptor M4 (Homo sapiens, UniProt P08173)" censoring_operator== result=6.15
compound=CCCC1CCN(CCCN2C(=O)CCc3ccccc32)CC1 assay_target="Muscarinic acetylcholine receptor M4 (Homo sapiens, UniProt P08173)" censoring_operator== result=5.78
compound="COc1cc2c(cc1OC)CN(/C=N/c1ccc3c(c1)C(OC(C)=O)CCC3)CC2 (centres undefined)" assay_target="Muscarinic acetylcholine receptor M4 (Homo sapiens, UniProt P08173)" censoring_operator== result=6.70
compound=N=C(N)NCCC[C@@H](N)C(=O)NCCN1CCN(CCCC2CCN(CC(=O)N3c4ccccc4NC(=O)c4ccccc43)CC2)CC1 assay_target="Muscarinic acetylcholine receptor M4 (Homo sapiens, UniProt P08173)" censoring_operator== result=8.40
compound="CC(C1=C(CCN(C)C)Cc2ccc(F)cc21)c1ccccn1 (centres undefined)" assay_target="Muscarinic acetylcholine receptor M4 (Homo sapiens, UniProt P08173)" censoring_operator== result=6.19

====

Field log10(Ki): reported value for Muscarinic acetylcholine receptor M4 (Homo sapiens); entries drawn from several documents.
Target: Muscarinic acetylcholine receptor M4 (Homo sapiens)
Sequence (P08173 whole entry): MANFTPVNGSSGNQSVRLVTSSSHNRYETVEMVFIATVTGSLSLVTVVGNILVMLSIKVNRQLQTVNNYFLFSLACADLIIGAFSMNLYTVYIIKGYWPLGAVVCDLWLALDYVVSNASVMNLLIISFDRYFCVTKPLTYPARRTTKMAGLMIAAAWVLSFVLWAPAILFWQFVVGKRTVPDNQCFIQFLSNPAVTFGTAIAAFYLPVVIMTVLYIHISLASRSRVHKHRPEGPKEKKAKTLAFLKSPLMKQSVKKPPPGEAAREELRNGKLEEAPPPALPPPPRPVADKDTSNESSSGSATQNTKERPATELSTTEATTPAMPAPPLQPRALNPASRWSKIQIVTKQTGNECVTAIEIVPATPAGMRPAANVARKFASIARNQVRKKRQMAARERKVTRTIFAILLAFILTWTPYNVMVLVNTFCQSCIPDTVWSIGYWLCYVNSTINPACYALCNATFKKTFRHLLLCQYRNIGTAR
assay-endpoint: log10(Ki) (log10 of the value in nM)

molecule="CC1Cc2ccccc2N1CC(=O)N1CCCC1 (stereo not drawn)" result=4.87
molecule="CCCCCCCCCCCC(OC(=O)C(CCCCN(O)C(C)=O)NC(=O)c1coc(-c2ccccc2O)n1)C(C)C(=O)NC1CCCCN(O)C1=O (stereo not drawn)" result=2.15
molecule="CN1CCCC(Oc2nc3ccccc3n2-c2ccccc2)C1 (racemic)" result=2.18
molecule="C[N+]1(C)CCC[C@H]1[C@H]1C[S+]([O-])[C@@](c2ccccc2)(C2CCCCC2)O1.[I-] (stereo in doubt; (+)-13)" result=1.20
molecule=CC(=O)N[C@@H](CCCCN)C(=O)N[C@@H](C)C(=O)N[C@@H](CCCNC(=N)N)C(=O)NCCN1CCN(CCCCC2CCN(CC(=O)N3c4ccccc4NC(=O)c4ccccc43)CC2)CC1 result=0.30
molecule="O=C(CCCNC(=O)CC(c1ccccc1)(c1ccccc1)c1ccccc1)NCCC(=O)NCC1CCCN(CC2CCCCC2)C1 (stereo not drawn)" result=1.78
molecule="CC(C1=C(CN(C)C)Cc2ccccc21)c1ccccn1 (stereo not drawn)" result=1.99
molecule="C[N+]1(C)CCC[C@@H]1[C@@H]1C[S+]([O-])[C@](c2ccccc2)(C2CCCCC2)O1.[I-] (stereo in doubt; (-)-12)" result=2.50

====

Molecular target: Muscarinic acetylcholine receptor M4 (Homo sapiens)
Sequence (P08173 whole entry): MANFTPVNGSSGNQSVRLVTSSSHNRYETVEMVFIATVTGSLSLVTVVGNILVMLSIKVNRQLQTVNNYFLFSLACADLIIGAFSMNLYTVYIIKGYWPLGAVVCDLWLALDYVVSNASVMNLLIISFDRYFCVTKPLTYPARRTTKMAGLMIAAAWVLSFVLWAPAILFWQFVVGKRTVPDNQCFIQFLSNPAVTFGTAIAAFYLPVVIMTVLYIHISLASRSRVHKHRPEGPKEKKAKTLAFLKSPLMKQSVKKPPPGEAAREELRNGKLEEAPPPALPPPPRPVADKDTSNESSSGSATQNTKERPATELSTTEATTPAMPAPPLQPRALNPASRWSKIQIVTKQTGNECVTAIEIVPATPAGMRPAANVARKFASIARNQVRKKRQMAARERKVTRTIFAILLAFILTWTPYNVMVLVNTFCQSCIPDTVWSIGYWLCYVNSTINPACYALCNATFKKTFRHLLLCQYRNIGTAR
Field Ki: reported value for Muscarinic acetylcholine receptor M4 (Homo sapiens); entries drawn from several documents.
assay-endpoint: Ki (nM)

compound="CC(C1=C(CCCN(C)C)Cc2ccccc21)c1ccccn1 (stereo not given)" assay_target="Muscarinic acetylcholine receptor M4 (Homo sapiens)" censoring_operator== result=1700
compound=CN1/C(=C/C=C/C=C/C2=[N+](CCCCCC(=O)NCCCCCCN3CCC(COC(=O)Nc4ccc(F)cc4-c4ccc(F)c(Cl)c4)CC3)c3ccccc3C2(C)C)C(C)(C)c2ccccc21 assay_target="Muscarinic acetylcholine receptor M4 (Homo sapiens)" censoring_operator== result=0.9
compound=CN(C)CCC1=C(C(C)(C)c2ccccn2)c2ccccc2C1 assay_target="Muscarinic acetylcholine receptor M4 (Homo sapiens)" censoring_operator== result=81.3
compound=C=Cc1ccc(N2CCN(Cc3c[nH]c4ncccc34)CC2)cc1 assay_target="Muscarinic acetylcholine receptor M4 (Homo sapiens)" censoring_operator=> result=10000
compound=O=C1CCc2ccccc2N1CCCN1CCC(CCCCCCCCCC2CCN(CCCN3C(=O)CCc4ccccc43)CC2)CC1 assay_target="Muscarinic acetylcholine receptor M4 (Homo sapiens)" censoring_operator== result=32.4
compound=Cn1ccc(NC(=O)CCN2CCCc3ccccc32)n1 assay_target="Muscarinic acetylcholine receptor M4 (Homo sapiens)" censoring_operator== result=8710
compound=CN(C)CCNC(=O)C1=C(Cc2ccncc2)c2ccccc2C1 assay_target="Muscarinic acetylcholine receptor M4 (Homo sapiens)" censoring_operator== result=87100
compound="C1C2C3CC4C2C2C1C3[C@H](NCC13C5C6C7C5C1C7C63)C42 (stereo not given in full)" assay_target="Muscarinic acetylcholine receptor M4 (Homo sapiens)" censoring_operator== result=354
compound=CN1CCC[C@H]1[C@@H]1CNC(=O)O1 assay_target="Muscarinic acetylcholine receptor M4 (Homo sapiens)" censoring_operator=> result=100000
compound="CN(C)CCC1=C(C(c2ccccc2)c2ccccn2)c2ccccc2C1 (stereo not given)" assay_target="Muscarinic acetylcholine receptor M4 (Homo sapiens)" censoring_operator== result=129
